System: ACHN renal
Test: NCI tumour cell line growth inhibition, 48 h; in the data active = GI50 below about 0.43 µM; inactive = the rest
Can you answer with just one of these options? active, inactive

Examples from the recorded data:
| Compound | Class Assignment |
| --- | --- |
| COc1cc(-c2nn(-c3cccc(NC(=O)Nc4cccc(C(F)(F)F)c4)c3)cc2-c2ccncc2)ccc1Cl | active |
| Cn1cc(-c2csc(-c3c[nH]c4ccccc34)n2)c2cnccc21 | inactive |
| CNCCCNc1nc2ccccc2c2c(=O)c3cc(F)ccc3sc12 | inactive |
| C#CC[C@@H]1C[C@]2(C)[C@H]3CC[C@@H]4[C@H]5C(C(=C)C)CC[C@]5(C(=O)NCCCCN)CC[C@@]4(C)[C@]3(C)CC[C@H]2C(C)(C)[C@H]1OC(C)=O (stereo partly specified) | inactive |
| CC1(C)CC[C@]2(C(=O)Nc3ccccn3)CC[C@]3(C)C(=CC[C@@H]4[C@@]5(C)C/C(=C/c6ccncc6)C(=O)C(C)(C)[C@@H]5CC[C@]43C)[C@@H]2C1 | inactive |
| C=[CH][Sn]([CH]=C)([S]c1cccc2cccnc12)[S]c1cccc2cccnc12 | active |

Tell me the assay call for Nc1nc2cc(O)ccc2n2cc3c(F)cccc3c12 please.
inactive

Tell me the assay call for COC(=O)/C=C1/SC(=Nc2ccc(F)cc2)N(CCc2c[nH]c3ccc(O)cc23)C1=O please.
inactive

Tell me the assay call for Cc1cc(Cl)ccc1OCc1nn2c(CCCCc3nnc4sc(COc5ccc(Cl)cc5C)nn34)nnc2s1 please.
inactive

Tell me the assay call for COc1cccc2c1O/C(=C\c1ncc([N+](=O)[O-])n1C)C2=O please.
active

Tell me the assay call for CC(=O)Oc1cc(C(C)C)c(OCCN(C)C)cc1C please.
inactive

Tell me the assay call for O=C(CN(/C=C/C(=O)C(F)(F)F)c1ccc(Cl)cc1)c1ccc(F)cc1 please.
inactive

Tell me the assay call for O=C1/C=C/[C@@H](O)[C@@H]2C[C@@H](O)C[C@H]2/C=C/CCC[C@H](CCc2ccccc2)O1 please.
active

Tell me the assay call for N/C(=N\N=C/c1c2ccccc2c(Cl)c2ccccc12)NO please.
inactive

Tell me the assay call for Cn1ccc2c1SSSSS2 please.
inactive

Tell me the assay call for O=c1ncc(I)cn1C1CC(O)C(CO)O1 (stereo unspecified) please.
inactive
